# Target of assay: Cbl-b (Homo sapiens (Human), UniProt Q13191)
# Sequence (Q13191 40-426): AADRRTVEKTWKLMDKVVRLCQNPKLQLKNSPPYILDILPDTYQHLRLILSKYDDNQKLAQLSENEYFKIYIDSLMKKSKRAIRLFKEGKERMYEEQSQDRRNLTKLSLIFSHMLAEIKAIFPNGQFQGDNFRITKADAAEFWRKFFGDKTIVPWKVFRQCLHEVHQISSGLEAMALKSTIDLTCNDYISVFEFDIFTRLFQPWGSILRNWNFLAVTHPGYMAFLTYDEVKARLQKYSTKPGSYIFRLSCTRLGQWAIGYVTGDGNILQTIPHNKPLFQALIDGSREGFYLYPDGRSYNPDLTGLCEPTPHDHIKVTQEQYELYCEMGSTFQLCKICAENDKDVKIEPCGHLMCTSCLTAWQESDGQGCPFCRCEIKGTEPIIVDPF
# Experiment summary: Cbl-b LCK Ub TR-FRET assay (Cbl-b Lck HTRF)
# Assay type: biochemical
Where a name gives a salt, the structure may show the parent alone.
Reported metric: log10 IC50 (log10 of the value in nM)

{"columns": ["Molecule", "log10 IC50"],
 "data": [
  ["CCOc1cc(C2(Cc3nncn3C)COC2)cc(N2Cc3c(cc(CN4CCC(F)(F)[C@H](C)C4)cc3C(F)(F)F)C2=O)n1", 1.34],
  ["CC(C)[C@H]1CN(C)CCN1Cc1cc2c(c(C(F)(F)F)c1)CN(c1cccc(C3(C(F)(F)c4nncn4C)CC(F)(F)C3)c1)C2=O", 1.23],
  ["CC1CCN(CCNc2cc(C3(Cc4nncn4C)CCC3)cc(N3Cc4c(cc(CNC5(C)CCC5)cc4C(F)(F)F)C3=O)n2)CC1 [Compound 309, formate]", 2.73],
  ["Cn1cnnc1CC1(c2cccc(N3Cc4c(cc(CN5CC(C)(F)C5)cc4C(F)(F)F)C3=O)c2)CC(F)(F)C1", 1.26],
  ["CCNC(=O)CNc1cc(C2(Cc3nncn3C)CCC2)cc(N2Cc3c(cc(CNC4(C)CCC4)cc3C(F)(F)F)C2=O)n1 [Compound 307, formate]", 2.26],
  ["C[C@H](N)c1cc2c(c(C(F)(F)F)c1)CN(c1cccc(C3(Cc4nncn4C)CC(F)(F)C3)c1)C2=O", 1.34]
]}

###

# Lookup of reported pIC50 keyed by entry
# Target of assay: Cbl-b (Homo sapiens (Human), UniProt Q13191)
# Experiment summary: Cbl-b LCK Ub TR-FRET assay (Cbl-b Lck HTRF)
# Assay type: biochemical
# Procedure: Compounds were 3-fold serially diluted in DMSO in a 384-well polypropylene plate (#P-05525-BC; Labcyte) to generate a source plate with 10 concentrations of each compound, top concentration=2 mM. […] Plates were read for TR-FRET using an Envision at excitation 340 nm, emission at 615 and 665 nm, 4 flashes per well. […] Cbl-b Lck HTRF data in Table 7 is measured according to Example 76 herein; C-cbl Lck HTRF data is measured according to Example 76 herein.
pIC50: −log10 of the molar value.
Reported metric: pIC50

{"columns": ["Molecule", "Target of assay", "Test result"],
 "data": [
  ["Cn1cnnc1[C@@H](F)C1(c2cccc(N3Cc4c(cc(Oc5cn[nH]c5)cc4C(F)(F)F)C3=O)c2)COC1 [Compound 117]", "Cbl-b (Homo sapiens (Human), UniProt Q13191)", 6.27],
  ["Cn1cnnc1[C@H](F)C1(c2cccc(N3Cc4c(cc(CNCCCF)cc4C(F)(F)F)C3=O)c2)COC1 [Compound 231]", "Cbl-b (Homo sapiens (Human), UniProt Q13191)", 8.01],
  ["CC(C)[C@H]1CN(C2COC2)CCN1Cc1cc2c(c(C(F)(F)F)c1)CN(c1cccc(C3([C@@H](F)c4nncn4C)COC3)c1)C2=O [Compound 200]", "Cbl-b (Homo sapiens (Human), UniProt Q13191)", 7.57],
  ["Cn1cnnc1[C@@H](F)C1(c2cccc(N3Cc4c(cc(CN5CCC56COC6)cc4C(F)(F)F)C3=O)c2)COC1 [Compound 176]", "Cbl-b (Homo sapiens (Human), UniProt Q13191)", 6.46],
  ["Cn1cnnc1CC1(c2cc(CCc3ccccc3)nc(N3Cc4c(cc(CNC5(C)CCC5)cc4C(F)(F)F)C3=O)c2)CCC1 [Compound 325]", "Cbl-b (Homo sapiens (Human), UniProt Q13191)", 7.33],
  ["CC(C)[C@H]1CN(C2CC2)CCN1Cc1cc2c(c(C(F)(F)F)c1)CN(c1cccc(C3([C@@H](F)c4nncn4C)COC3)c1)C2=O [Compound 405]", "Cbl-b (Homo sapiens (Human), UniProt Q13191)", 7.74]
]}

###

# Target of assay: Cbl-b (Homo sapiens (Human))
# Experiment summary: Cbl-b LCK Ub TR-FRET assay (Cbl-b Lck HTRF)
# Type: biochemical
pIC50: −log10 of the molar value.
Mark Not satisfied for pIC50 values under 7, and Satisfied for everything at or above.

{"columns": ["Chemical smiles", "Class"],
 "data": [
  ["CC(C)[C@H]1CN(C)CCN1Cc1cc2c(c(C(F)(F)F)c1)CN(c1cccc(C3([C@@H](F)c4nncn4C(F)F)COC3)c1)C2=O", "Satisfied"],
  ["Cn1cnnc1CC1(c2cccc(N3Cc4c(cc(CNCC5COC5)cc4C(F)(F)F)C3=O)c2)CC(F)(F)C1", "Satisfied"],
  ["Cn1cnnc1CC1(c2cccc(N3Cc4c(cc(OCc5c[nH]cn5)cc4C(F)(F)F)C3=O)c2)CC(F)(F)C1", "Satisfied"],
  ["C[C@H](c1cc2c(c(C(F)(F)F)c1)CN(c1cccc(C3([C@H](F)c4nncn4C)COC3)c1)C2=O)N1CC(C)(F)C1", "Not satisfied"],
  ["Cn1cnnc1[C@H](F)C1(c2cccc(N3Cc4c(cc(CN5CCC[C@H]5CO)cc4C(F)(F)F)C3=O)c2)COC1", "Not satisfied"],
  ["Cn1cnnc1C(F)(F)C1(c2cccc(N3Cc4c(cc(CN)cc4C(F)(F)F)C3=O)c2)CC(F)(F)C1", "Not satisfied"]
]}

###

# Target of assay: UniProtKB P22681
# Experiment summary: C-Cbl LCK Ub TR-FRET assay (c-cbl Lck HTRF)
# Assay type: biochemical
# Experimental context: C-cbl Lck HTRF IC50 relative to Cbl-b Lck HTRF IC50
Each entry below lists one item and its recorded (fold-selectivity) value.

{"columns": ["Chemical smiles", "(fold-selectivity) [x]"],
 "data": [
  ["Cn1cnnc1CC1(c2cccc(N3Cc4c(cc(CN5Cc6c[nH]nc6C5)cc4C(F)(F)F)C3=O)c2)CC(F)(F)C1", 0.93],
  ["Cn1cnnc1[C@H](F)C1(c2cccc(N3Cc4c(cc(CN5CCC56COC6)cc4C(F)(F)F)C3=O)c2)COC1", 2.5],
  ["Cn1cnnc1[C@H](F)C1(c2cccc(N3Cc4c(cccc4C(F)F)C3=O)c2)COC1", 2.1]
]}

###

In this section, each of the compounds is paired with its reported pIC50.
# Target of assay: c-Cbl (Homo sapiens (Human))
# Sequence (P22681 47-435): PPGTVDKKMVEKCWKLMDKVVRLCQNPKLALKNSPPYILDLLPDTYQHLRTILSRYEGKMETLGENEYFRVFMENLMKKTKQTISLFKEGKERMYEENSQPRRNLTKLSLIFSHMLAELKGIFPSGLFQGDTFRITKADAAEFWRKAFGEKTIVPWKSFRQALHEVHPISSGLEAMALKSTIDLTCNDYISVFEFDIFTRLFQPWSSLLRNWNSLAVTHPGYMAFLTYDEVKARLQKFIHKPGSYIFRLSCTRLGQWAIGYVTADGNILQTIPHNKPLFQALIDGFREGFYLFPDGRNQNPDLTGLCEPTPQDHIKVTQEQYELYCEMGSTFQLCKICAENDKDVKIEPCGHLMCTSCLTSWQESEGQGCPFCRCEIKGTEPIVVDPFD
# Experiment summary: C-Cbl LCK Ub TR-FRET assay (c-cbl Lck HTRF)
# Assay type: biochemical
pIC50: −log10 of the molar value. Structures can show the parent of a compound that is named as a salt.

{"columns": ["Compound", "Target of assay", "pIC50"],
 "data": [
  ["CCC1(NCc2cc3c(c(C(F)(F)F)c2)CN(c2cccc(C4(Cc5nncn5C)CC(F)(F)C4)c2)C3=O)CCC1 [Compound 369, formate]", "c-Cbl (Homo sapiens (Human))", 7.82],
  ["CO[C@H]1CCN(Cc2cc3c(c(C(F)(F)F)c2)CN(c2cccc(C4([C@@H](F)c5nncn5C)COC4)c2)C3=O)C1 [Compound 131]", "c-Cbl (Homo sapiens (Human))", 6.77],
  ["Cn1cnnc1CC1(c2cc(CCC(C)(C)C)nc(N3Cc4c(cc(CNC5(C)CCC5)cc4C(F)(F)F)C3=O)c2)CCC1 [Compound 322]", "c-Cbl (Homo sapiens (Human))", 7.47]
]}

###

# Target of assay: c-Cbl (Homo sapiens (Human))
# Experiment summary: C-Cbl LCK Ub TR-FRET assay (c-cbl Lck HTRF)
# Assay type: biochemical
# Experimental context: C-cbl Lck HTRF IC50 relative to Cbl-b Lck HTRF IC50
# Method: 6 μL of detection mixture was added to all wells and briefly centrifuged before incubating for 20 min at room temperature. […] IC50 was generated using no LCK as the low control and DMSO as the high control.
The following compounds are shown together with reported (fold-selectivity) values.
Reported metric: (fold-selectivity) (x)

{"columns": ["Compound", "Test result"],
 "data": [
  ["Cn1cnnc1[C@H](F)C1(c2cccc(N3Cc4c(cccc4-c4ccccc4)C3=O)c2)COC1 [Compound 210]", 1.0],
  ["CCC1(O)CN(Cc2cc3c(c(C(F)(F)F)c2)CN(c2cccc(C4([C@H](F)c5nncn5C)COC4)c2)C3=O)C1 [Compound 168]", 2.1],
  ["COC[C@H]1CCCN1Cc1cc2c(c(C(F)(F)F)c1)CN(c1cccc(C3([C@H](F)c4nncn4C)COC3)c1)C2=O [Compound 156]", 5.6],
  ["COCC1(F)CN(Cc2cc3c(c(C(F)(F)F)c2)CN(c2cccc(C4([C@H](F)c5nncn5C)COC4)c2)C3=O)C1 [Compound 136]", 2.0],
  ["Cn1cnnc1[C@H](F)C1(c2cccc(N3Cc4c(cc(CN5CC[C@H](F)C5)cc4C(F)(F)F)C3=O)c2)COC1 [Compound 82]", 2.4],
  ["CN(CCC(C)(C)O)Cc1cc2c(c(C(F)(F)F)c1)CN(c1cccc(C3([C@H](F)c4nncn4C)COC3)c1)C2=O [Compound 158]", 1.0],
  ["Cn1cnnc1[C@@H](F)C1(c2cccc(N3Cc4c(cc(CN5CC(C)(O)C5)cc4C(F)(F)F)C3=O)c2)CC(F)(F)C1 [Compound 52]", 2.1],
  ["Cn1cnnc1CC1(c2cccc(N3Cc4c(cc(C5CNC5)cc4C(F)(F)F)C3=O)c2)COC1 [Compound 12]", 0.94]
]}
